system: MOLT-4 leukemia; experiment: NCI tumour cell line growth inhibition, 48 h
parameterMeasured: TGI

> print(dat)
                                   molecule  endpointvalue
1  O=c1[nH]c(=O)n(C2OC(CO)C(O)C2O)cc1NN=NCc1ccccc1 (stereo unspecified)       > 100 µM
2                    Nc1ncnc2c1ccn2C/C=C\CO       > 100 µM
3  O/N=C/C1C(OCc2ccccc2)C(OCc2ccccc2)C(OCc2ccccc2)CN1Cc1ccccc1 (stereo unspecified)        31.4 µM
4  CN1CCN(C(=O)CCNC(=O)Cc2ccc(C(=O)c3ccccc3)cc2)CC1       > 100 µM
5  CCCCc1c(N(C)C)c(OC(C)=O)c(-c2cn(C)c3ccccc23)oc1=O       > 100 µM
6  OCCCCCCCCCCCOc1ccc(C2OCC3(CO2)COC(c2ccc(OCCCCCCCCCCCO)cc2)OC3)cc1 (stereo unspecified)        > 50 µM

* * *

system: HS 578T breast; test: NCI tumour cell line growth inhibition, 48 h; in the data active means GI50 below about 0.43 µM; inactive means the rest
Possible outcomes: active, inactive

> print(dat)
                                    molecule  classname
 1                          C=COCCCOc1ccccc1   inactive
 2  CC(C)c1ccc2c(c1)CC[C@@H]1[C@@](C)(C(=O)O)CCC[C@]21C   inactive
 3  Cn1c2ccccc2c2c3c(c4c5cc(Br)ccc5n(C)c4c21)C(=O)N(O)C3=O   inactive
 4  C=C1CC[C@@H]2[C@](C)(COC(C)=O)[C@H](OC(C)=O)CC[C@@]2(C)[C@@H]1CC(Sc1ccccc1)C1=CCOC1=O (some centres not stated)   inactive
 5  CCN(CC)c1ccc2c(c1)OC(N)=C(C#N)C2c1cc(OC)c2c(c1)OCO2 (configuration not stated)     active
 6  O=c1c2sc(=S)n(-c3ccc(F)cc3)c2ncn1Cc1ccc(F)cc1F   inactive
 7  N#Cc1c(NN)n(C2OC(CO)C(O)C2O)c2ncnc(N)c12 (configuration not stated)     active
 8  CN1CCN(CCOc2ccc(-c3cnc4c(-c5ccccc5F)cnn4c3)cc2)CC1   inactive
 9  O=C(Nc1nc2ccc(C(F)(F)F)cc2s1)c1cc(Cl)ccc1O   inactive
10  C=C1C(=O)O[C@@H]2C[C@@H]1CC/C(C)=C/CC/C(C)=C/CC[C@@]2(C)O   inactive
11  COc1cc2nc(-c3ccc(Cl)cc3)cc(OCCCN3CCCCC3)c2cc1OC   inactive
12            N#CC(=C1C=CC(=NO)C=C1)c1ccccc1   inactive
13                [Cl][Hg][c]1cc(Br)cc(Br)c1   inactive
14    CCN(CC)CCOc1ccc(-c2nc3cc(Cl)ccc3s2)cc1   inactive
15  CC(C)CCN1c2nc(Nc3cc(F)c(O)c(F)c3)ncc2N(C)C(=O)C1C (configuration not stated)   inactive
16         Cc1cc(I)cc(CN(C)CCCN2CCCCCCC2)c1O   inactive
17  COc1cnc2c(c1)C(=O)c1c-2n(CCCNC(C)C)c(=O)c2cc(Cl)ccc12   inactive

* * *

system: SK-MEL-2 melanoma; test: NCI tumour cell line growth inhibition, 48 h
parameterMeasured: GI50

> print(dat)
                                   compound  endpointvalue
1  C=C(CNCc1ccccc1)c1ccc(C(=O)Nc2ccccc2N)cc1        5.49 µM
2     CCCCCCNC(=O)c1cc(NCc2cc(O)ccc2O)ccc1O        11.9 µM
3  CCC[CH2][Sn]1([CH2]CCC)[O]N=C(c2ccccc2)C(c2ccccc2)[O]1 (centres undefined)        1.27 µM
4  O=C1NC(=O)C(c2cnc3ccccn23)=C1c1cn2c3c(cc(F)cc13)CN(C(=O)N1CCCCC1)CC2         8.8 µM
